Attribution: patent US20240101668A1

# testedSystem: T1, huFLT3-M227 stably expressed on Ramos cells (human, UniProt P36888 27-993)
# T1 construct: whole, on cells; also called FLT3 Mutant
# T1 sequence (P36888 27-993 T227M): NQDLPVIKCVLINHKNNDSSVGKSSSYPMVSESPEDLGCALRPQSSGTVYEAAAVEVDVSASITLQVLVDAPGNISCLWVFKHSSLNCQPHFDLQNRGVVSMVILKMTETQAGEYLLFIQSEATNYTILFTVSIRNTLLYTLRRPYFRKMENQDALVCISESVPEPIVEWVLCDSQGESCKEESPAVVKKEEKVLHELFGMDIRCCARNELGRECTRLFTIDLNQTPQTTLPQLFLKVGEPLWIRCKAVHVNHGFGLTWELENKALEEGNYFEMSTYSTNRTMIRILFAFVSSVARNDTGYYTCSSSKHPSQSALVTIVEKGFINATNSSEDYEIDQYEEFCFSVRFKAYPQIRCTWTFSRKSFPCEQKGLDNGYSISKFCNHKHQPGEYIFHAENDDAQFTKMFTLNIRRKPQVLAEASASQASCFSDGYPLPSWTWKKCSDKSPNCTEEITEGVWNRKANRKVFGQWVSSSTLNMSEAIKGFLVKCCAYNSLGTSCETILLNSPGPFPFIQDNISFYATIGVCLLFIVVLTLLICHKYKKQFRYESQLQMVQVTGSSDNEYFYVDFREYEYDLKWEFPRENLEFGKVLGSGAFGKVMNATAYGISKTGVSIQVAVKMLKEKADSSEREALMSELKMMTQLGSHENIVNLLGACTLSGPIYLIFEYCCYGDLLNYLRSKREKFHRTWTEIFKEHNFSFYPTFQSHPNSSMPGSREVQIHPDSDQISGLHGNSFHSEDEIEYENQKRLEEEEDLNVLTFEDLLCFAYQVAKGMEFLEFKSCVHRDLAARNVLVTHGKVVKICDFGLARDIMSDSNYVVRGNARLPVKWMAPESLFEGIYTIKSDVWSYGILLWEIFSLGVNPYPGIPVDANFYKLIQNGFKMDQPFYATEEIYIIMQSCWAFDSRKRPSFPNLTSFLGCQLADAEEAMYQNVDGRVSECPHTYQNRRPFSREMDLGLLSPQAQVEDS
# experimentDescription: FACS on cells
propertyLabel: FACS geometric mean fold change over Jurkat parental

Task item: For the binder shown here, Polypeptide No. 256 (scFv, V domains shown, scFv) VH: QVQLVQSGAEVKKPGASVKVSCKASGYTFATYYLHWVRQAPGQGLEWMGMINPSGGSTIYAQKFQGRVTMTRDTSTSTVYMELSSLRSEDTAVYYCARSSGYDFFDYWGQGTLVTVSS VL: DIQMTQSPSSLSASVGDRVTITCRASHDINNYLNWYQQKPGKAPKLLIYDASNLETGVPSRFSGSGSGTDFTLTISSLQPEDFATYYCQQADSFPLTFGGGTKVEIKR , give the reported FACS geometric mean fold change over Jurkat parental.
Reply: > 30 fold

Task item: Also Polypeptide No. 294 (scFv, V domains shown, scFv) VH: QVQLVQSGAEVKKPGASVKVSCKASGYTFTSNNMHWVRQAPGQGLEWMGWINLNSGGTNYAQKFQGRVTMTRDTSTSTVYMELSSLRSEDTAVYYCAKAIDYYYMDVWGKGTTVTVSS VL: DIQMTQSPSSLSASVGDRVTITCRASQGIRNDLGWYQQKPGKAPKLLIYQASSLENGVPSRFSGSGSGTDFTLTISSLQPEDFATYYCQQAYSLPWTFGQGTKLEIKR ?
Reply: 10 to 30 fold

Task item: Let us now turn to Polypeptide No. 208 (scFv, V domains shown, scFv) VH: QVQLVQSGAEVKKPGASVKVSCKASGGTFSSRSISWVRQAPGQGLEWMGIINPSGGGTLYAQKFQGRVTMTRDTSTSTVYMELSSLRSEDTAVYYCAKDMDGWSDAFDIWGQGTTVTVSS VL: EIVMTQSPATLSVSPGERATLSCRASQSLSNIYLAWYQQKPGQAPRLLIYDVSSRAAGIPARFSGSGSGTEFTLTISSLQSEDFAVYYCQQYATSPLTFGGGTKVEIKR
Reply: 10 to 30 fold

Task item: Thanks! And Polypeptide No. 222 (scFv, V domains shown, scFv) VH: QVQLVQSGAEVKKPGASVKVSCKASGYSFTAYYMHWVRQAPGQGLEWMGIINPSGGSTSYAQKFQGRVTMTRDTSTSTVYMELSSLRSEDTAVYYCARVAGINGEMAYWGQGTLVTVSS VL: DIQMTQSPSSLSASVGDRVTITCRASQDISNYLAWYQQKPGKAPKLLIYAASTLQSGVPSRFSGSGSGTDFTLTISSLQPEDFATYYCQQSYRTPYTFGQGTKVEIKR ?
Reply: > 30 fold

Task item: Further, for Polypeptide No. 253 (scFv, V domains shown, scFv) VH: QVQLVQSGAEVKKPGSSVKVSCKASGYTFTTYFMHWVRQAPGQGLEWMGGIVPVFGTTKYAQKFQGRVTITADESTSTAYMELSSLRSEDTAVYYCASSAVGWFDPWGQGTLVTVSS VL: DIQMTQSPSSLSASVGDRVTITCRASQDISRWLAWYQQKPGKAPKLLIYAASSLQSGVPSRFSGSGSGTDFTLTISSLQPEDFATYYCQQYDNFPLTFGGGTKLEIKR ?
Reply: 2 to 10 fold

Task item: Item: Polypeptide No. 250 (scFv, V domains shown, scFv) VH: QVQLVQSGAEVKKPGSSVKVSCKASGYTLTSFAMHWVRQAPGQGLEWMGRIIPMSGTANYAQKFQGRVTITADESTSTAYMELSSLRSEDTAVYYCASTSPDQYYYGMDVWGQGTTVTVSS VL: EIVMTQSPATLSVSPGERATLSCRASQSVGSSSLAWYQQKPGQAPRLLIYGASTRATGIPARFSGSGSGTEFTLTISSLQSEDFAVYYCQQYGSSPYTFGQGTKVEIKR
Reply: 2 to 10 fold

Task item: Also check Polypeptide No. 235 (scFv, V domains shown, scFv) VH: QVQLVQSGAEVKKPGASVKVSCKASGYTFTGYYMHWVRQAPGQGLEWMGIINPSGGSTSYAQKFQGRVTMTRDTSTSTVYMELSSLRSEDTAVYYCARDPGRLGELDYWGQGTLVTVSS VL: EIVMTQSPATLSVSPGERATLSCRASQSVSSNLAWYQQKPGQAPRLLIYGASTRATGIPARFSGSGSGTEFTLTISSLQSEDFAVYYCQQYGSSPLTFGGGTKVEIKR
Reply: > 30 fold

Task item: Okay, and Polypeptide No. 260 (scFv, V domains shown, scFv) VH: QVQLVQSGAEVKKPGASVKVSCKASGYTFTNYYVHWVRQAPGQGLEWMGMINPSGGSTNYAQKFQGRVTMTRDTSTSTVYMELSSLRSEDTAVYYCARVSGWKRGWFDPWGQGTLVTVSS VL: DIQMTQSPSSLSASVGDRVTITCRSSQSISTYLNWYQQKPGKAPKLLIYGASNLQSGVPSRFSGSGSGTDFTLTISSLQPEDFATYYCQQVISYPITFGGGTKVEIKR ?
Reply: > 30 fold

Task item: // repeat for Polypeptide No. 268 (scFv, V domains shown, scFv) VH: QVQLVQSGAEVKKPGSSVKVSCKASGGTFSTYALSWVRQAPGQGLEWMGGVIPVFGTTDYAHKFQGRVTITADESTSTAYMELSSLRSEDTAVYYCASMIIFGAGGWDAYYFQEWGQGTLVTVSS VL: EIVMTQSPATLSVSPGERATLSCRASQSVNNNQLAWYQQKPGQAPRLLIYDTSSRATGIPARFSGSGSGTEFTLTISSLQSEDFAVYYCQQYDTSPYTFGQGTKVEIKR and report
Reply: 2 to 10 fold

Task item: Likewise for Polypeptide No. 226 (scFv, V domains shown, scFv) VH: QVQLVQSGAEVKKPGASVKVSCKASGYTFTGYYMHWVRQAPGQGLEWMGIIDPSGGSTSYAQKFQGRVTMTRDTSTSTVYMELSSLRSEDTAVYYCARDRSLLWSGVGGMDVWGQGTTVTVSS VL: DIQMTQSPSSLSASVGDRVTITCRASQGISNYLAWYQQKPGKAPKLLIYGASNLQSGVPSRFSGSGSGTDFTLTISSLQPEDFATYYCQQSYGTPYTFGQGTKLEIKR ?
Reply: 2 to 10 fold
